Tested on: HS 578T breast
assay-protocol: NCI tumour cell line growth inhibition, 48 h
measurement-name: TGI

Some compounds with known TGI results, for comparison:
{"columns": ["compound", "TGI"],
 "data": [
  ["COc1ccc(C2C(c3ccccc3)C(=O)N2c2cc(OC)c(OC)c(OC)c2)cc1I (stereo not drawn)", "> 100 µM"],
  ["C[C@@H]1CC[C@H]2C(COC/C=C/COCC3=C(C(F)(F)F)O[C@@H]4O[C@@]5(C)CC[C@H]6[C@H](C)CC[C@@H]3[C@@]46OO5)=C(C(F)(F)F)O[C@@H]3O[C@@]4(C)CC[C@@H]1[C@]32OO4", "> 100 µM"],
  ["COC(=O)C(/C(=N/N)C(=O)Nc1cc(Cl)c(Cl)cc1Cl)c1nc2ccc(Cl)cc2[nH]c1=O (stereo not drawn)", "> 100 µM"],
  ["CC(NC(=O)/C(C#N)=C/c1ccc2[nH]ccc2c1)c1ccccc1 (stereo not drawn)", "66.4 µM"]
]}

Input line: Item CCCCCC(=O)OCC(=O)[C@H]1[C@H](C)C[C@H]2[C@@H]3C[C@H](F)C4=C/C(=N/OC(=O)c5cccc6c(=O)c7ccccc7[nH]c56)C=C[C@]4(C)[C@H]3[C@@H](O)C[C@@]21C with HS 578T breast - TGI?
Output line: > 100 µM

Input line: Item CCN(CC)Cc1ccc2cccnc2c1O with HS 578T breast - TGI?
Output line: > 100 µM

Input line: Item Cn1cc2c(=O)n3ncn(-c4ccc(Br)cc4)c3nc2n1 with HS 578T breast - TGI?
Output line: > 100 µM

Input line: Item COc1cc(OC)c(OC)cc1/C=C1\C=Cc2ccccc21 with HS 578T breast - TGI?
Output line: 96.2 µM

Input line: Item CC1=NN2C(=O)CC(=O)N=C2S1 with HS 578T breast - TGI?
Output line: > 100 µM
